Biological target: Calcium-activated potassium channel subunit alpha-1 (Homo sapiens) + Leucine-rich repeat-containing protein 26 (Homo sapiens) (UniProt Q12791+Q2I0M4)
Sequence (Q2I0M4 whole entry, looked up, one chain of several): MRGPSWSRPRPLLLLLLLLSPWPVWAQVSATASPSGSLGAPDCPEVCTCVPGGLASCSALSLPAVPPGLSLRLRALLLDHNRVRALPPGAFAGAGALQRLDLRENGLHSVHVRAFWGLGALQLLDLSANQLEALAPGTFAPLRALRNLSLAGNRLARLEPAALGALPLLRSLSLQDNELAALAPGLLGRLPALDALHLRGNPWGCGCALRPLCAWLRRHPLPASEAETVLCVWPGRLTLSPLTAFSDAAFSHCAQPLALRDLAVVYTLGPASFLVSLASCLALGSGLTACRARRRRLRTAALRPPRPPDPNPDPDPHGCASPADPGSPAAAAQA
Assay: modulators of BK channel variants, profiling panel, selectivity assay, cell-based, U2OS BacMam, thallium flux, beta subunits (AID 1259406);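 further: initial slope of Thallos dye fluorescence rise after thallium is added; log ratio against the mean of 0.3% DMSO vehicle wells on the same plate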
Conditions: F380Y/Slo1WT/gamma1, at 30 µM
Listing of entries alongside the reported log fold change Tl+ flux.
Please reply with the value in numeric form only.

{"compound": "Cc1ncc2n1-c1ccc(Cl)cc1C(c1ccccc1F)=NC2", "value_kind": "log fold change Tl+ flux", "result_value": -0.019}
{"compound": "CC[C@@H](C(N)=O)N1CCCC1=O", "value_kind": "log fold change Tl+ flux", "result_value": -0.0482}
{"compound": "CC(O)(CS(=O)(=O)c1ccc(F)cc1)C(=O)Nc1ccc(C#N)c(C(F)(F)F)c1 (centres undefined)", "value_kind": "log fold change Tl+ flux", "result_value": 0.0529}

Per the record, Clc1ccc(COC(Cn2ccnc2)c2ccc(Cl)cc2Cl)c(Cl)c1 (centres undefined) has log fold change Tl+ flux of 0.0222

Per the record, c1ccc(Cn2ccnc2)cc1 has log fold change Tl+ flux of -0.0094

Per the record, CN1CCN(C(=O)O[C@H]2c3nccnc3C(=O)N2c2ccc(Cl)cn2)CC1 has log fold change Tl+ flux of -0.0271

Per the record, CCOC(=O)c1cncn1[C@H](C)c1ccccc1 has log fold change Tl+ flux of 0.0279

Per the record, c1ccc2c(c1)Nc1ccccc1S2 has log fold change Tl+ flux of -0.0274

Per the record, CCCC(C)(COC(N)=O)COC(=O)NC(C)C (centres undefined) has log fold change Tl+ flux of 0.00552

Per the record, CC12CCC(=O)C=C1CCC1C2CCC2(C)C(O)CCC12 (centres undefined) has log fold change Tl+ flux of -0.042
